B1: Osa-1-4 twister ribozyme (parent)
chain: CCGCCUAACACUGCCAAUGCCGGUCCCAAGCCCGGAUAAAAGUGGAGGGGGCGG

- Variants of: B1
- protocol_description: self-cleavage, relative activity (ratio to wild type); higher = more cleavage; co-transcriptional
// map self-cleavage onto a label; ranges category 1 (below 0.06), category 2 (0.06 to below 0.2), category 3 (0.2 or more)

| mutant | group_label |
| --- | --- |
| C15U G50U | category 3 |
| A8U C21A | category 2 |
| A8C G35A | category 2 |
| A38C U43G | category 3 |
| C15A G30U | category 1 |
| A10G A40U | category 3 |
| G42C G54C | category 3 |
| C15A C20U | category 3 |
| C31A G54U | category 1 |
| C32G G47U | category 1 |
| A41C U37A | category 3 |
| C14G G30A | category 2 |
| G47A U12A | category 2 |
| A29C G30C | category 1 |
| C9G G42A | category 2 |
| A28G C15G | category 3 |
| C11U C21G | category 2 |
| A41C A7G | category 2 |
| G13C | category 1 |
| G49C G53U | category 1 |
| C32A G30U | category 1 |
